experimental.system: A2B receptor (Homo sapiens)
Sequence (P29275 1-332): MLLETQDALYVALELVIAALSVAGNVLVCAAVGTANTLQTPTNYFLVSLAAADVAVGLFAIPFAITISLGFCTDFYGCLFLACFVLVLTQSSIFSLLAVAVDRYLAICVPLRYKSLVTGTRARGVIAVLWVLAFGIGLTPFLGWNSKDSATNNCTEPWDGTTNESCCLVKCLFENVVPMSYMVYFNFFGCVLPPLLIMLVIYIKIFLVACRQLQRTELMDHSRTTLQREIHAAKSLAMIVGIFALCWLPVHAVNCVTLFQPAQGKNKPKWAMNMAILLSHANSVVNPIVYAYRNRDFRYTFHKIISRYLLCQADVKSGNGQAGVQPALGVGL
protocol.text: A2bR antagonism IC50, cAMP TR-FRET in HEK-293 cells, high concentration of adenosine (30 μM);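 also: compounds preincubated 10 min with cells, then adenosine stimulation 30 min at room temperature in buffer with Rolipram 100 µM and EHNA 30 µM, TR-FRET read after 1 h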
details: A2BR IC50 (nM) (@30 μM Adenosine), HEK-293 cells expressing A2B receptor; agonist adenosine 30 μM; 2% HSA; inhibition of cAMP
measured.quantity: IC50

* CCc1cnn2c(N)c(C#N)c(NCCc3ccn(C4(CO)CC4)n3)nc12 | 2820 nM

Item: CCc1c(C)nn2c(N)c(C#N)c(NCCc3cccc(C4(CO)CC4)n3)nc12 | IC50: 2370 nM

Quick note, IC50 for Cc1nn2c(N)c(C#N)c(NCCc3cccc(CO)n3)nc2c1Br landed at 3120 nM

Record COCCn1cccc(CCNc2nc3c(Cl)c(C)nn3c(N)c2C#N)c1=O . Reported IC50: 5640 nM

The compound Cc1nn2c(N)c(C#N)c(NCCc3ccn(C4(CNC(=O)CCO)CC4)n3)nc2c1Cl showed IC50 equal to 20000 nM

For Cc1nn2c(N)c(C#N)c(NCCc3cccn(CCCN)c3=O)nc2c1Cl the compound record lists IC50 as 5660 nM

// IC50 value for Cc1nn2c(N)c(C#N)c(NCCc3ccn(C4(CO)CC4)n3)nc2c1C1CC1 : > 15000 nM

* * *

experimental.system: A2B receptor (Homo sapiens, UniProt P29275)
protocol.text: A2bR antagonism IC50, cAMP TR-FRET (Lance Ultra) in HEK-293 cells, NECA as agonist
Type: cell-based
Design: host or cells: HEK-293
details: HEK-293 cells expressing A2B receptor; agonist NECA 30 nM (EC90); inhibition of cAMP
measured.quantity: IC50

Reference set, count: 4
- CCc1nn2c(N)c(C#N)c(NCCc3cccc(C)n3)nc2c1C: 76 nM
- Cc1cccc(CCNc2nc3c(CC4CC4)c(C)nn3c(N)c2C#N)n1: 0.83 nM
- Cc1cccc(CCNc2nc3c(CC(C)C)c(C)nn3c(N)c2C#N)n1: 654 nM
- CCc1c(C)nn2c(N)c(C#N)c(NCCc3ccc(OC)cn3)nc12: 36 nM

Input CCc1c(C)nn2c(N)c(C#N)c(NCCc3cccc(C4CC4CO)n3)nc12 (centres unmarked) . Output IC50: 0.94 nM

Lab note: measured IC50 of Cc1ccc(F)c(CCNc2nc3c(C)c(C)nn3c(N)c2C#N)n1 was 73 nM

Entry CCc1c(C)nn2c(N)c(C#N)c(NC(C)Cc3ccccn3)nc12 (single isomer, unassigned) [Example 23] — recorded IC50 = 130 nM

# compound CCc1c(C)nn2c(N)c(C#N)c(NCCc3ccc(C)cn3)nc12 ; its IC50 = 9.5 nM

The recorded IC50 for entry Cc1nn2c(N)c(C#N)c(NCCc3cccc(C(C)(C)O)n3)nc2c1C equals 53 nM

IC50 reading for Cc1cccc(CC(C)Nc2nc3c(C)c(C)nn3c(N)c2C#N)n1 (single isomer, unassigned) [Example 15] : 102 nM

Looking up CCn1ccc(CCNc2nc3c(C)c(C)nn3c(N)c2C#N)n1 , I found its IC50 recorded as 18 nM
